Data credit: ChEMBL document CHEMBL1131256

# STUDY SYSTEM: Proto-oncogene tyrosine-protein kinase Src (Homo sapiens, UniProt P12931)
# Sequence (P12931 2-536 limits assumed): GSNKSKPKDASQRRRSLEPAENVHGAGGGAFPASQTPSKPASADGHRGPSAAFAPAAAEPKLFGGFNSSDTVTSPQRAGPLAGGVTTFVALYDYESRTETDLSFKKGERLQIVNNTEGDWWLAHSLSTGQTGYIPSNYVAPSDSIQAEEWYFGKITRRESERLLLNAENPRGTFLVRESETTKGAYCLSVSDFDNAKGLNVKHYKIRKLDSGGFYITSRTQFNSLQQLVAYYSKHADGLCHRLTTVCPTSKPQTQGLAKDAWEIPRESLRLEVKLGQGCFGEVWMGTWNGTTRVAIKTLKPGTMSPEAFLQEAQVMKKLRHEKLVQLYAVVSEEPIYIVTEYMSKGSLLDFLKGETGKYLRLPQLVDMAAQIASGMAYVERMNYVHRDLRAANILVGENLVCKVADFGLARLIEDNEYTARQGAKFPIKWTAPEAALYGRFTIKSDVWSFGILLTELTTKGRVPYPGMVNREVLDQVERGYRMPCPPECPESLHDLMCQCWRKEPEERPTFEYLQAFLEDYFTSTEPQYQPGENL
Criterion: IC50 strictly under 3 µM. Met: Met. Not met: Not met.

* CC1(C)SSC[C@@H](C(=O)N[C@@H](CCCCN)C(N)=O)NC(=O)[C@H](Cc2ccccc2)NC(=O)[C@H](CO)NC(=O)CNC(=O)[C@H](Cc2ccc(O)cc2)NC(=O)[C@H]1NC(=O)[C@@H](N)Cc1ccc(O)cc1 | Not met
* CC1(C)SSC[C@@H](C(=O)N[C@@H](CCCNC(=N)N)C(N)=O)NC(=O)[C@H](Cc2ccccc2)NC(=O)[C@H](CO)NC(=O)CNC(=O)[C@H](Cc2ccc(O)cc2)NC(=O)[C@H]1NC(=O)[C@@H](N)Cc1ccc(O)cc1 | Not met

[Q] Item CC1(C)SSC[C@@H](C(=O)N[C@@H](CCCNC(=N)N)C(N)=O)NC(=O)[C@H](Cc2ccccc2)NC(=O)[C@H](CO)NC(=O)CNC(=O)[C@H](Cc2ccc3ccccc3c2)NC(=O)[C@@H]1NC(=O)[C@@H](N)Cc1ccc(O)cc1 : IC50 beneath 3 µM, strictly?
[A] Not met

[Q] Try this molecule next: CC[C@H](C)[C@@H]1NC(=O)[C@@H](N)CSSC[C@@H](C(=O)N[C@@H](CCCCN)C(=O)N[C@@H](CCCCN)C(=O)O)NC(=O)[C@H](Cc2ccccc2)NC(=O)[C@H](CO)NC(=O)CNC(=O)[C@H](Cc2ccc(O)cc2)NC1=O
[A] Met

[Q] Try this molecule too: CC(C)(S)[C@H](NC(=O)[C@@H](N)Cc1ccc(O)cc1)C(=O)N[C@@H](Cc1ccc2ccccc2c1)C(=O)NCC(=O)N[C@@H](CO)C(=O)N[C@@H](Cc1ccccc1)C(=O)N[C@@H](CS)C(=O)N[C@@H](CCCCN)C(=O)N[C@@H](CCCCN)C(N)=O
[A] Met

[Q] Now the same for CC(=O)N[C@@H](Cc1ccc(O)cc1)C(=O)N[C@@H]1C(=O)N[C@@H](Cc2ccc(O)cc2)C(=O)NCC(=O)N[C@@H](CO)C(=O)N[C@@H](Cc2ccccc2)C(=O)N[C@H](C(=O)N[C@@H](CCCCN)C(=O)N[C@@H](CCCCN)C(N)=O)CSSC1(C)C
[A] Not met

[Q] Can you handle CC(C)(S)[C@H](NC(=O)[C@@H](N)Cc1ccc(O)cc1)C(=O)N[C@@H](Cc1ccc(O)cc1)C(=O)NCC(=O)N[C@@H](CO)C(=O)N[C@@H](Cc1ccccc1)C(=O)N[C@@H](CS)C(=O)N[C@@H](CCCCN)C(=O)N[C@@H](CCCCN)C(N)=O next?
[A] Not met
